- Tested on: 885512-296-R-J2-PDC complex spheroid viability
- test.description: Anticancer human tumor 885512-296-R-J2-PDC patient-derived breast carcinoma cell line growth inhibition [GQUAD]
- stated.conditions: second compound 0.0316 µM; first compound 0.0316 µM; hits give low values
Reported viability, T/C values are given for each entry in this list.
Numeric answer only, unit % assumed.

molecule	units.text	viability, T/C
CC1COCCN1c1cc(C2(S(C)(=N)=O)CC2)nc(-c2ccnc3[nH]ccc23)n1 (stereo unspecified) + Cc1[nH]c2ccc(F)cc2c1-c1nc2c3cccnc3c3ncccc3c2[nH]1	%	103
Nc1ccn(C2OC(CO)C(O)C2(F)F)c(=O)n1 (stereo unspecified) + Cc1[nH]c2ccc(F)cc2c1-c1nc2c3cccnc3c3ncccc3c2[nH]1	%	14.6
Cc1[nH]c2ccccc2c1CCNCc1ccc(/C=C/C(=O)NO)cc1 + Cc1[nH]c2ccc(F)cc2c1-c1nc2c3cccnc3c3ncccc3c2[nH]1	%	94.9
CC(C)n1c(=O)n(C)c2cnc3cc(F)c(-c4ccc(OCCCN5CCCCC5)nc4)cc3c21 + Cc1cnc(CNC(=O)c2c(=O)c3ccc(N4CCCN(C)CC4)nc3n3c2sc2ccccc23)cn1	%	28.4
CC[C@@]1(O)C(=O)OCc2c1cc1n(c2=O)Cc2cc3c(CN(C)C)c(O)ccc3nc2-1 + Cc1cnc(CNC(=O)c2c(=O)c3ccc(N4CCCN(C)CC4)nc3n3c2sc2ccccc23)cn1	%	20.5

As a next step, examine the molecule that follows.
Recorded viability, T/C for O=C(NO)c1cnc(N2CCN(S(=O)(=O)c3ccc4ccccc4c3)CC2)nc1 + Cc1cnc(CNC(=O)c2c(=O)c3ccc(N4CCCN(C)CC4)nc3n3c2sc2ccccc23)cn1 with 885512-296-R-J2-PDC complex spheroid viability, please?
65.9

* * *

- System: 885512-296-R-J2-PDC complex spheroid viability
- test.description: Anticancer human tumor 885512-296-R-J2-PDC cell line growth inhibition [GQUAD]; active = viability on the fitted dose curve at most 10% of control; inactive = the rest;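 also: spheroids exposed to the compounds for one week; percent of tumor spheroid viability relative to DMSO vehicle control wells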
- stated.conditions: second compound 0.1 µM; first compound 0.316 µM
Permitted responses: T for active, F for inactive

Solved cases (2 shown):
compound	assigned.class
CC[C@@]1(O)C(=O)OCc2c1cc1n(c2=O)Cc2cc3c(CN(C)C)c(O)ccc3nc2-1 + CN(C)c1ccc(Nc2c3ccc(NC(=O)CCN4CCCC4)cc3nc3cc(NC(=O)CCN4CCCC4)ccc23)cc1	T
C=CCn1c(=O)c2cnc(Nc3ccc(N4CCN(C)CC4)cc3)nc2n1-c1cccc(C(C)(C)O)n1 + Cc1cnc(CNC(=O)c2c(=O)c3ccc(N4CCCN(C)CC4)nc3n3c2sc2ccccc23)cn1	F

Lab log entry: CCc1c2c(nc3ccc(O)cc13)-c1cc3c(c(=O)n1C2)COC(=O)[C@]3(O)CC + Cc1[nH]c2ccc(F)cc2c1-c1nc2c3cccnc3c3ncccc3c2[nH]1 — outcome as called in the assay?
T

Lab log entry: CC(C)n1c(=O)n(C)c2cnc3cc(F)c(-c4ccc(OCCCN5CCCCC5)nc4)cc3c21 + Cc1cnc(CNC(=O)c2c(=O)c3ccc(N4CCCN(C)CC4)nc3n3c2sc2ccccc23)cn1 — outcome as called in the assay?
F

Lab log entry: CC(=O)O[C@H]1C(=O)[C@@]2(C)[C@H]([C@H](OC(=O)c3ccccc3)[C@]3(O)C[C@H](OC(=O)[C@H](O)[C@@H](NC(=O)c4ccccc4)c4ccccc4)C(C)=C1C3(C)C)[C@]1(OC(C)=O)CO[C@@H]1C[C@@H]2O + Cc1cnc(CNC(=O)c2c(=O)c3ccc(N4CCCN(C)CC4)nc3n3c2sc2ccccc23)cn1 — outcome as called in the assay?
T
